The origin of these recorded values is patent US20240376099A1.

# target: TLR7 (Homo sapiens, UniProt Q9NYK1)
# Construct: Fresh blood was collected from normal human donors; endogenous in cells
# Sequence (Q9NYK1 27-1049): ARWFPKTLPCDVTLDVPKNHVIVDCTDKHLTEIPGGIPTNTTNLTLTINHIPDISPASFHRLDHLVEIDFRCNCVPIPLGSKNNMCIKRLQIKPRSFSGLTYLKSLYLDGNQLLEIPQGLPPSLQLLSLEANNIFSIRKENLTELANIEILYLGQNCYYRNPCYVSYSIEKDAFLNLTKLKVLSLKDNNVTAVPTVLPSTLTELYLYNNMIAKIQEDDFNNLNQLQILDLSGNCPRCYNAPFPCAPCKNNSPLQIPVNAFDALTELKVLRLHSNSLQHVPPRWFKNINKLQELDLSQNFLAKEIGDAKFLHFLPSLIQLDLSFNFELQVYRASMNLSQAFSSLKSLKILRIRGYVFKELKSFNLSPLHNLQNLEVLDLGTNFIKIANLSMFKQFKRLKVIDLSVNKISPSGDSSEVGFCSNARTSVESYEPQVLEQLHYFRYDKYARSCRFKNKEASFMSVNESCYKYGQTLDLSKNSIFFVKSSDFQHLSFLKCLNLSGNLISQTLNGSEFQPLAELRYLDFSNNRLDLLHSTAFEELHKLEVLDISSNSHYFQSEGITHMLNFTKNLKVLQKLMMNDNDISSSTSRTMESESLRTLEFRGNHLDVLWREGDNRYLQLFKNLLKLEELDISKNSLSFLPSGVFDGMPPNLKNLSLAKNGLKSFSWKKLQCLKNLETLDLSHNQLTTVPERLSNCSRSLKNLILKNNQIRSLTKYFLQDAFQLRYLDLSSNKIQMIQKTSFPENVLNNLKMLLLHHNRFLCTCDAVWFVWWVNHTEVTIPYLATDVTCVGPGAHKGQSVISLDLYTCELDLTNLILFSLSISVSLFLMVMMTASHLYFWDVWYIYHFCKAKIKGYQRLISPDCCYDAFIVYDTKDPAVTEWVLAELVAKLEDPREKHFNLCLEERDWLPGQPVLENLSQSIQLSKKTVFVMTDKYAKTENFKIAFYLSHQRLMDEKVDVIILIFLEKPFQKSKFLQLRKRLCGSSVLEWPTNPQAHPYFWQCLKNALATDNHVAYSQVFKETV
# measurement_notes: huPBMC TLR7 Antagonist IFNα Assay
# applied_conditions: human PBMCs stimulated with ssRNA40 10 μg/mL (DOTAP), 14-16 hrs; IFNα2b AlphaLISA read-out
pIC50: −log10 of the molar value.
metric_name: pIC50

A selection of reference data follows.
Cc1nn(CC23CCC(N)(CC2)CC3)c2c1CN(c1ccnc(-c3ccc(C#N)cc3)c1)CC2	6.52
Cc1nc(N2CCc3c(c(C)nn3CC34CCC(N)(CC3)CC4)C2)c2c(n1)c(C)nn2C	6.19
Cn1ncc2c(N3CCc4nn(CC56CCC(N)(CC5)CC6)cc4C3)nc(N)nc21	6.08
Cc1cc(N2CCc3c(c(C)nn3CC34CCC(N5C[C@@H](O)[C@@H](O)C5)(CC3)CC4)C2)c2cnn(C)c2n1	8.15
Cc1cc(N2CCc3c(c(C)nn3CC34CCC(N5CCN(C)CC5=O)(CC3)CC4)C2)c2cnn(C)c2n1	7.68

A. [2H]C([2H])([2H])N(CC(=O)NC12CCC(Cn3nc(C)c4c3CCN(c3cc(C)nc5c3cnn5C)C4)(CC1)CC2)C([2H])([2H])[2H]
B. CCNCC(=O)NC12CCC(Cn3nc(C)c4c3CCN(c3cc(C)nc5c3cnn5C)C4)(CC1)CC2
C. Cc1cc(N2CCc3c(c(C)nn3CC34CCC(NCC5CCC5)(CC3)CO4)C2)c2cnn(C)c2n1
D. Cc1cc(N2CCc3c(c(C)nn3CC34CCC(NC(=O)CN5CCCC5)(CC3)CC4)C2)c2cnn(C)c2n1
Challenge: Write the entries in order, lowest recorded pIC50 first. # list labels per requested ordering
Response given: C, B, D, A

I. Cc1cc(N2CCc3c(c(C)nn3CC34CCC(N)(CC3)CC4)C2)c2cn[nH]c2n1
II. Cc1cc(N2CCc3c(c(C)nn3CC34CCC(NCC5(CO)COC5)(CC3)CC4)C2)c2cnn(C)c2n1
III. Cc1cc(N2CCc3c(c(C)nn3CC34CCC(NC5COC5)(CC3)CC4)C2)c2cnn(C)c2n1
IV. Cc1cc(N2CCc3c(c(C)nn3CC34CCC(N5C[C@@H](C)O[C@@H](C)C5)(CC3)CC4)C2)c2cnn(C)c2n1
Challenge: Order each entry by recorded pIC50, climbing from the minimum. Returns: the labels listed in the requested order.
Response given: II, I, III, IV

I. Cc1cc(N2CCc3c(c(C)nn3CC34CCC(NC(=O)OC(C)(C)C)(CC3)C4)C2)c2cnn(C)c2n1
II. Cc1cc(N2CCc3c(c(C)nn3CCC34CCC(N)(CC3)CC4)C2)c2cnn(C)c2n1
Challenge: Hi there! Just curious which has the higher pIC50 between I and II . Please reply using the label of the selected record.
Response given: II
(II: 7.66, I: 7.27)

1. Cc1cc(N2CCc3c(c(C)nn3CC34CCC(N5CCN(C)C(=O)C5)(CC3)CC4)C2)c2cnn(C)c2n1
2. COCCNC12CCC(Cn3nc(C)c4c3CCN(c3cc(C)nc5c3cnn5C)C4)(CC1)OC2
3. Cc1cc(N2CCc3c(c(C)nn3CC34CCC(NC(=O)CN(C)S(C)(=O)=O)(CC3)CC4)C2)c2cnn(C)c2n1
4. Cc1cc(N2CCc3c(c(C)nn3CC34CCC(NC(=O)CCN)(CC3)CC4)C2)c2cnn(C)c2n1
Challenge: Arrange the 4 entries by pIC50 so the values rise. Answer format: list of labels, ordered as asked.
Response given: 1, 2, 4, 3

###

# target: TLR9 (Homo sapiens)
# Construct: Fresh blood was collected from normal human donors; endogenous in cells
# measurement_notes: huPBMC TLR9 Antagonist IFNα Assay
# applied_conditions: human PBMCs stimulated with ODN2216 0.3 μM, 14-16 hrs; IFNα2b AlphaLISA read-out
metric_name: IC50 (µM)

Some solved cases for reference:
Cc1cc(N2CCc3c(c(C)nn3CC34CCC(N5C[C@@H](C)O[C@H](C)C5)(CC3)CC4)C2)c2cnn(C)c2n1 [compound 113]	1.41
Cc1cc(N2CCc3c(c(C)nn3CC34CCC(N)(CC3)CC4)C2)c2cnn(C)c2n1 [Compound No. 1]	1.52
Cc1cc(N2CCc3c(c(C)nn3CC34CCC(N5CCOC[C@@H]5C)(CC3)CC4)C2)c2cnn(C)c2n1 [compound 128]	0.792
Cc1cc(N2CCc3c(c(C)nn3CC34CCC(N5CC6(COC6)C5)(CC3)CC4)C2)c2cnn(C)c2n1 [compound 116]	1.57

1. Cc1cc(N2CCc3c(c(C)nn3CC34CCC(NC(=O)CN5CCCC5)(CC3)CC4)C2)c2cnn(C)c2n1 [compound 100]
2. Cc1cc(N2CCc3c(c(C)nn3CC34CCC(NC(=O)[C@H]5COCCN5)(CC3)CC4)C2)c2cnn(C)c2n1 [Compound No. 9]
Challenge: Looking only at measured IC50, which entry is lower, 1 or 2 ? State your choice using its label.
Response given: 1
(1: 1.36 µM, 2: 5.1 µM)

###

Below: a set of entries, each annotated with reported IC50.
# target: TLR8 (Homo sapiens)
# Sequence (Q9NR97 27-1041): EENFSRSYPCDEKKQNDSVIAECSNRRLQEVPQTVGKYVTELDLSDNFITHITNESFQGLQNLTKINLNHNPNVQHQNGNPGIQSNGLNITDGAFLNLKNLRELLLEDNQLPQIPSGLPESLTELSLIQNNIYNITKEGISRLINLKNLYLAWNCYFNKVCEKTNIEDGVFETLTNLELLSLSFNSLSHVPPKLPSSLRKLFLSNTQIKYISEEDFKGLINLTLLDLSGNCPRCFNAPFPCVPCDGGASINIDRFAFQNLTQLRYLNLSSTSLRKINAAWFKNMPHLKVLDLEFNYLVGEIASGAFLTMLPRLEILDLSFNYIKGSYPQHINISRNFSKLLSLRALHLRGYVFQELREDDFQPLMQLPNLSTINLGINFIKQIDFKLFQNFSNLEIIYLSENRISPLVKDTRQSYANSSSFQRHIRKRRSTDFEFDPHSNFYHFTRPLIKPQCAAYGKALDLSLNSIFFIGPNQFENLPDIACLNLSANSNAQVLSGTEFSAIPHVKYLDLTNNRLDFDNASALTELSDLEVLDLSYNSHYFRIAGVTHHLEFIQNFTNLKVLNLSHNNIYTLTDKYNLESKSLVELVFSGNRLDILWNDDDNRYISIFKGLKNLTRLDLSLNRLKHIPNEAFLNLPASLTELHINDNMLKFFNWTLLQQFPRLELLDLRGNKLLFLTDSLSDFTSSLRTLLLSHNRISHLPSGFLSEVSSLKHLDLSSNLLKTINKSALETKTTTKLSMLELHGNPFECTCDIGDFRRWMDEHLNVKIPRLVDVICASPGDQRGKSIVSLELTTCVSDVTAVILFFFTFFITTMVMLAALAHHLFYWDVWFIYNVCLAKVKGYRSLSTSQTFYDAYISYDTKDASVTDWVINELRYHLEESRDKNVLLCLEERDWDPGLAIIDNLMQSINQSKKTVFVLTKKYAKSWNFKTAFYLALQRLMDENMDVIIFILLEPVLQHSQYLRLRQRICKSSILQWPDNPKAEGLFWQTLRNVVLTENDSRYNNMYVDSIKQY
# measurement_notes: huPBMC TLR8 Antagonist IL-6 TR-FRET Assay
# Format: cell-based
# Design: Fresh blood was collected from normal human donors; endogenous in cells; host or cells: human PBMCs from fresh donor blood
# applied_conditions: human PBMCs stimulated with ssRNA40 1 μg/ml (DOTAP), 14-16 hrs; IL-6 TR-FRET read-out
# Text: Compounds were generally serially diluted (1/3) in DMSO and plated on sterile 384 well tissue culture plates and stored until ready for use. Each ten-point dilution was typically plated in triplicate in parallel rows. Fresh blood was collected from normal human donors underwritten informed consent in heparinized syringes on the morning of the assay. […] Viable PBMCs were counted on a hemacytometer and kept on ice until ready for plating. […]

CCn1ncc2c(N3CCc4c(c(C)nn4CC45CCC(NC(=O)OC(C)(C)C)(CC4)CC5)C3)cc(C)nc21 [compound 145]	> 10 µM
Cc1nc(N2CCc3c(c(C)nn3CC34CCC(NC(=O)[C@@H]5COCCN5)(CC3)CC4)C2)c2c(n1)c(C)nn2C [compound 33]	0.072 µM

Turning to the following molecule.
Considering Cc1cc(N2CCc3c(c(C)nn3CC34CCC(NC(=O)OC(C)(C)C)(CC3)C4)C2)c2cnn(C)c2n1 [compound 148] , its IC50 with TLR8 (Homo sapiens) was recorded as > 10 µM

###

# target: TLR8 (Homo sapiens)
# measurement_notes: huPBMC TLR8 Antagonist IL-6 TR-FRET Assay
# Format: cell-based
# Parameters: Fresh blood was collected from normal human donors; endogenous in cells; host or cells: human PBMCs from fresh donor blood
# applied_conditions: human PBMCs stimulated with ssRNA40 1 μg/ml (DOTAP), 14-16 hrs; IL-6 TR-FRET read-out
pIC50: −log10 of the molar value.
metric_name: pIC50

Worked examples, 5 molecules total:
Cc1cc(N2CCc3c(c(C)nn3CC34CCC(N(C)C5CCC5)(CC3)CC4)C2)c2cnn(C)c2n1	6.87
Cc1cc(N2CCc3c(c(C)nn3CC34CCC(N5CCCC5)(CC3)CC4)C2)c2cnn(C)c2n1	7.28
CCN(C)CC(=O)NC12CCC(Cn3nc(C)c4c3CCN(c3cc(C)nc5c3cnn5C)C4)(CC1)CC2	8.10
Cc1cc(N2CCc3c(c(C)nn3CC34CCC(NC(=O)CCN(C)C)(CC3)CC4)C2)c2cnn(C)c2n1	7.57
Cc1cc(N2CCc3c(c(C)nn3CC34CCC(NC(=O)C5CNCCO5)(CC3)CC4)C2)c2cnn(C)c2n1 (stereo not shown)	7.37

a. Cc1cc(N2CCc3c(c(C)nn3CC34CCC(N5CCN(C)CC5=O)(CC3)CC4)C2)c2cnn(C)c2n1
b. Cc1ccc(-c2cc(N3CCc4c(c(C)nn4CC45CCC(N)(CC4)CC5)C3)ccn2)c(F)c1
c. CC(=O)N(C)CC(=O)NC12CCC(Cn3nc(C)c4c3CCN(c3cc(C)nc5c3cnn5C)C4)(CC1)CC2
Challenge: Rank the 3 molecules: largest pIC50 first, smallest last. Could you list the labels in the order requested?
Response given: a, b, c
(a: 7.36, b: 6.15, c: 5.45)

a. Cc1cc(N2CCc3c(c(C)nn3CC34CCC(N5CCOCC5)(CC3)CC4)C2)c2cnn(C)c2n1
b. Cc1nc(N2CCc3c(c(C)nn3CC34CCC(NC5CCC5)(CC3)CC4)C2)c2c(n1)c(C)nn2C
Challenge: Compare the recorded pIC50 of a and b ; state which is larger. I would appreciate it if you answered with the label of your choice.
Response given: b
(b: 7.85, a: 7.28)

###

Recorded measurements of IC50, one per entry
# target: TLR9 (Homo sapiens, UniProt Q9NR96)
# Construct: Fresh blood was collected from normal human donors; endogenous in cells
# Sequence (Q9NR96 26-1032): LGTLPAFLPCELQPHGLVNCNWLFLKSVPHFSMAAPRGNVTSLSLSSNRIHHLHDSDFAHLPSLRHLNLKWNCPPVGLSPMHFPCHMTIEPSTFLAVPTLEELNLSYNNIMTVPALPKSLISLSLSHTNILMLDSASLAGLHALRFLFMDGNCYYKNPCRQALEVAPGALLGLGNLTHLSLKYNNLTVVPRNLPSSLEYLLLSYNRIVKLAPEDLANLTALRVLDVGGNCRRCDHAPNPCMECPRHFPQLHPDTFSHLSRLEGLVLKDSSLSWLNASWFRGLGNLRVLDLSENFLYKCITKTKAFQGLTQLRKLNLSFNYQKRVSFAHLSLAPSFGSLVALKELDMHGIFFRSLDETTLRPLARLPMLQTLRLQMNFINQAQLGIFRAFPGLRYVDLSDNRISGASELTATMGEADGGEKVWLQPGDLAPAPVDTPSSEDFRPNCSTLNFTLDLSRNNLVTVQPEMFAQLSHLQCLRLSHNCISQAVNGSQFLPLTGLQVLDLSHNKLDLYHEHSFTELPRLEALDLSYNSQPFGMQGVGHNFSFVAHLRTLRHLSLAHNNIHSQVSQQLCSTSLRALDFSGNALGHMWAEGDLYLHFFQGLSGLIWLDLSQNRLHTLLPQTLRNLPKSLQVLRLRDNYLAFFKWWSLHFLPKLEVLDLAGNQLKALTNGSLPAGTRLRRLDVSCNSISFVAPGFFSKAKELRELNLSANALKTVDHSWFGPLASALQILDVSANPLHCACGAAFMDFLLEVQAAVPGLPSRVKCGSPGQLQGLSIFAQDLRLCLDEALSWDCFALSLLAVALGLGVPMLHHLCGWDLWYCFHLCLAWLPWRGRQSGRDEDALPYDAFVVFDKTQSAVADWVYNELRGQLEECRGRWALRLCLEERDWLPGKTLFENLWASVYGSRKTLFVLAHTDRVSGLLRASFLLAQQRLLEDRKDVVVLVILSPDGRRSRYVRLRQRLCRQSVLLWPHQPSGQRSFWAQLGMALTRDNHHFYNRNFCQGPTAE
# measurement_notes: huPBMC TLR9 Antagonist IFNα Assay
# applied_conditions: human PBMCs stimulated with ODN2216 0.3 μM, 14-16 hrs; IFNα2b AlphaLISA read-out

Cc1cc(N2CCc3c(c(C)nn3CC34CCC(NC(=O)CO)(CC3)CC4)C2)c2cnn(C)c2n1 [Compound No. 135]	> 10 µM

Recorded IC50 (compound CNCCC(=O)NC12CCC(Cn3nc(C)c4c3CCN(c3cc(C)nc5c3cnn5C)C4)(CC1)CC2 [compound 142] ): > 6.59 µM

Data point: CCNCC(=O)NC12CCC(Cn3nc(C)c4c3CCN(c3nc(C)nc5[nH]ncc35)C4)(CC1)CC2 [compound 20] ; IC50 = > 9.38 µM
